Listed next: entries and their corresponding IC50.
- system_tested: human MRGPR X4 (Homo sapiens)
- Construct: expressed in transfected cells
- Sequence (Q96LA9 whole entry): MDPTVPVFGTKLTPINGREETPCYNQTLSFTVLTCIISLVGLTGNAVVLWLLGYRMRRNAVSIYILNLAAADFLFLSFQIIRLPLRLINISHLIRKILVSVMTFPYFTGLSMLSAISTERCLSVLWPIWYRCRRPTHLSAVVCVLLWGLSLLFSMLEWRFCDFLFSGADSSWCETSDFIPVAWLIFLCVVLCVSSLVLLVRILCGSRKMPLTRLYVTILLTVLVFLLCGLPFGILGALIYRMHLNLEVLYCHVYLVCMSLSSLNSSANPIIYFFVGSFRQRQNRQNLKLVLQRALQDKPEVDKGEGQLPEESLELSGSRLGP
- protocol_description: MRGPR X4 antagonist activity, IP-One Gq HTRF assay in stably transfected HEK cells
- Format: cell-based

O=C(NCc1ccc(O)cc1)c1nn(Cc2ccc(Cl)cc2)c2ccccc12; 501 to 1000 nM
N=C(N)NCCCCNC(=O)c1nn(Cc2ccc(Cl)cc2)c2ccccc12; 1000 to 2500 nM
O=C(NCc1cnc2ccccc2c1)c1nn(Cc2ccc(Cl)cc2)c2ccccc12; > 2500 nM
Cn1c(Cn2nc(C(=O)NCCc3nnc4ccccn34)c3ccccc32)nc2ccccc21; 100 to 500 nM
O=C(NCCc1nnc2ccccn12)c1nn(Cc2cccn3ccnc23)c2ccccc12; 1000 to 2500 nM
COCCn1cnnc1CCNC(=O)c1nn(Cc2ccc(Cl)cc2)c2ccccc12; 501 to 1000 nM
O=C(NCCC1CCS(=O)(=O)CC1)c1nn(Cc2ccc(Cl)cc2)c2ccccc12; > 2500 nM
O=C(NCc1cncnc1)c1nn(Cc2ccc(Cl)cc2)c2ccccc12; > 2500 nM
CC(C)(C)c1ccc(Cn2nc(C(=O)NCCc3ccccn3)c3ccccc32)cc1; 1000 to 2500 nM
Cc1ccc(Cn2nc(C(=O)NCCc3nc4c(s3)COCC4)c3ccccc32)cc1; 100 to 500 nM

Read the entry Cc1cc(Cl)ccc1Cn1nc(C(=O)NCCc2nnc3n2CCCCC3)c2ccccc21 and write its reported IC50.
< 100 nM

Read the entry O=C(NCCc1cccc(C(F)(F)F)c1)c1cn(Cc2ccc(Cl)cc2)c2ccccc12 and write its reported IC50.
1000 to 2500 nM

Read the entry Cc1[nH]c2ccccc2c1CCNC(=O)c1nn(Cc2ccc(Cl)cc2)c2ccccc12 and write its reported IC50.
> 2500 nM

Read the entry O=C(NS(=O)(=O)c1ccc(Cl)cc1Cl)c1nn(Cc2cccc(F)c2)c2ccccc12 and write its reported IC50.
501 to 1000 nM

Read the entry O=C(NCCc1nnc2ccccn12)c1nn(CCC2CCCCC2)c2ccccc12 and write its reported IC50.
100 to 500 nM

Read the entry O=C(NCCc1nnc2ccccn12)c1nn(Cc2ccc3c(c2)OC(F)(F)O3)c2ccccc12 and write its reported IC50.
100 to 500 nM

Read the entry COc1ncccc1CCNC(=O)c1cn(Cc2ccc(Cl)cc2)c2ccccc12 and write its reported IC50.
100 to 500 nM

The reported numbers originate from patent US20240254089A1.
